Assay: Selectivity index, ratio of IC50 for HEK293 cells to IC50 for Trypanosoma brucei brucei 427
Assay type: toxicity, cell-based
Settings: human, read-out: Ratio IC50
Measurement kind: selectivity ratio

The molecule Cc1ccnc(NC(=O)c2ccccc2C)c1 showed selectivity ratio equal to > 37

Noted for Cc1ccccc1C(=O)Nc1cc(Cl)ccn1 : its selectivity ratio reads > 38

Per the records, this molecule ( Cc1ccccc1C(=O)Nc1cc(C#CCC(C)C)ccn1 ) has selectivity ratio equal to > 53

So for COc1ccc(NC(=O)c2ccccc2C)nc1 , the logged selectivity ratio turned out to be > 22
